Data provenance is patent US6962930B1.

target-or-test-system: polyamine binding site on the NMDA receptor (Rattus norvegicus, UniProt P35439+Q00960)
Construct: from tissue; host or cells: rat cortical membranes
Sequence (Q00960 27-1482, other chains not shown): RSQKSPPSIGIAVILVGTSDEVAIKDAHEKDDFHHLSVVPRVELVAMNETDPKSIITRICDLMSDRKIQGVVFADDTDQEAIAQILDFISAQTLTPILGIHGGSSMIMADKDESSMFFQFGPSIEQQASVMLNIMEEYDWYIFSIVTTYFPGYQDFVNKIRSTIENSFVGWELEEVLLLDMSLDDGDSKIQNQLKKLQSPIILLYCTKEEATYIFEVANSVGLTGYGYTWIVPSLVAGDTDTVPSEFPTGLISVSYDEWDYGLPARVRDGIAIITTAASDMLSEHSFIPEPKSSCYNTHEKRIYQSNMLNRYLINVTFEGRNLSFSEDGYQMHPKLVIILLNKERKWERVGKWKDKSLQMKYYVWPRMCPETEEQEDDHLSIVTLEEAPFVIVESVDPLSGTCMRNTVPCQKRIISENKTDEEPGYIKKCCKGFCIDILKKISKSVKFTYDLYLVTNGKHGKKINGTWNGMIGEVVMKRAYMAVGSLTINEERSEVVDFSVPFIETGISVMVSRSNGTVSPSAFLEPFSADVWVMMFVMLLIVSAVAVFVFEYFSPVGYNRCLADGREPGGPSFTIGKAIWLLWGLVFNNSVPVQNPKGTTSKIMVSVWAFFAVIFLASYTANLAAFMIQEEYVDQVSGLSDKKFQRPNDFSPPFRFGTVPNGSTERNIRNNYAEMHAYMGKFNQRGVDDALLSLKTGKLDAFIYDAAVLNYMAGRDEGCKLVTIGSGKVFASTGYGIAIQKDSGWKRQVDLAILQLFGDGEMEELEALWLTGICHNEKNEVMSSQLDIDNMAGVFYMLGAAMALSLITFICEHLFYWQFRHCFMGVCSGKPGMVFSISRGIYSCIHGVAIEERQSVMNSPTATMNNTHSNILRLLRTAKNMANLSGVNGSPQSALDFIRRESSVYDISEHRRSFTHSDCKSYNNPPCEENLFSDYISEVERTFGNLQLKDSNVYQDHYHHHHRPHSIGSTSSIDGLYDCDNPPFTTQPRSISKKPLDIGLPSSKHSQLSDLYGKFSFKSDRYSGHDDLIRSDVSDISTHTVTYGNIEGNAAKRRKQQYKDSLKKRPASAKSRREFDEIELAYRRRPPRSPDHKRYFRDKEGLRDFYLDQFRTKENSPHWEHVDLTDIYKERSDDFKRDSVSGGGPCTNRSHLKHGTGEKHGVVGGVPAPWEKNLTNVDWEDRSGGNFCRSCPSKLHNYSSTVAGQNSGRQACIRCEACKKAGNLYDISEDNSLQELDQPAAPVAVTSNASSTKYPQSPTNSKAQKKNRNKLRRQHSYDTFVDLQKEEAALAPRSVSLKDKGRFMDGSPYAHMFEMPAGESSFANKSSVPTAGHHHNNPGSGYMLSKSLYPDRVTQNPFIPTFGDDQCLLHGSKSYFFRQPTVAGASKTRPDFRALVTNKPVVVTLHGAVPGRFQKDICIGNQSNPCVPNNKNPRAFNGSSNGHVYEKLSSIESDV
measurement-protocol: [3H]ifenprodil binding, rat cortical membranes
condition-details: 5–200 μM DCUKA tested
reported-property: IC50

### Prompt // fetch polyamine binding site on the NMDA receptor (Rattus norvegicus, UniProt P35439+Q00960) IC50 for `O=C(O)c1cc(NC(=O)N(c2ccccc2)c2ccccc2)c2c(Cl)cc(Cl)cc2n1`
### Response > 200 µM

###

target-or-test-system: NR1a/NR2A recombinant receptors (Homo sapiens, UniProt Q05586+Q12879)
measurement-protocol: NMDA-induced currents in oocytes expressing NR1a/NR2A
condition-details: 100 μM NMDA, 1 μM glycine, oocytes; read-out: IC50, inhibition of NMDA-induced currents
reported-property: pIC50
Note on units: pIC50 is unitless, being -log10 of a concentration expressed in mol/L.

### Prompt Tell me the measured pIC50 of `O=C(O)c1cc(NC(=O)N(c2ccccc2)c2ccccc2)c2c(Cl)cc(Cl)cc2n1` , please.
### Response 4.89
